- assay.system: recombinant human FMS kinase (재조합 인간 FMS 키나아제) (Homo sapiens)
- Sequence (P07333 20-972): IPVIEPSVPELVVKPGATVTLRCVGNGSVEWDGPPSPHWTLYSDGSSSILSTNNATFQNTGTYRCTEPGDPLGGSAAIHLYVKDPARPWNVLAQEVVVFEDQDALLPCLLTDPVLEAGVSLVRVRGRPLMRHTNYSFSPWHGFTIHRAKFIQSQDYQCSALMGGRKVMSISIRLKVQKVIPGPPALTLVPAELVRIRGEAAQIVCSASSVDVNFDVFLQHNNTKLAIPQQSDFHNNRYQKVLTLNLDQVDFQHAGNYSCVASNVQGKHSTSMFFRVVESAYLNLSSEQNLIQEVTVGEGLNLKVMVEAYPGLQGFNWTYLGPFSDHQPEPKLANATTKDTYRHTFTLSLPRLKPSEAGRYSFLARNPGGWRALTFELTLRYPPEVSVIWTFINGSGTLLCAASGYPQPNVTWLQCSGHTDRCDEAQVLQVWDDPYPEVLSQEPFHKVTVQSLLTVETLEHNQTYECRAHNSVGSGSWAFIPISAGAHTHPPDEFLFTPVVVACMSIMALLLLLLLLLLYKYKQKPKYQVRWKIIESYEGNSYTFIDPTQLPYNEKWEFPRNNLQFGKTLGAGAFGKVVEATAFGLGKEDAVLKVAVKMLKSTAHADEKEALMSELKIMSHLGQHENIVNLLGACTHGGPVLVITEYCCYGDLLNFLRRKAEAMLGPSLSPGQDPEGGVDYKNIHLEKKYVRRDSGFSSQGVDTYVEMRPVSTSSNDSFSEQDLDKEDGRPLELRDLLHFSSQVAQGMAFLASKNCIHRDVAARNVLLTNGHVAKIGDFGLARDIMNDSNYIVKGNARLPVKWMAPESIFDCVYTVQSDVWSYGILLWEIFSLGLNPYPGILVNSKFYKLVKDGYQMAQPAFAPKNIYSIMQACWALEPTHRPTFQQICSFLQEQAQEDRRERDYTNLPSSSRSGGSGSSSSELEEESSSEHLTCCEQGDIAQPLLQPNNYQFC
- test.summary: FMS kinase inhibitory activity evaluation (Test Example 1; FRET, Z'-Lyte kinase assay-Tyr 1 peptide kit)
- experimental.parameters: 0.3 µg/mL FMS, 150 μM ATP, room temperature, 1 h
measured.property: IC50 (nM)
Unit nM implied. Number only.

Record summary for COc1ccc(CNc2cc(N(C)C(=O)Nc3cccc4c3c(C)nn4Cc3cccc(F)n3)ncn2)c(OC)c1 : reported IC50 = 65

***
Record summary for COc1cccc(Cn2nc(C)c3c(NC(=O)N(C)c4cc(N)ncn4)cccc32)c1 : reported IC50 = 14

Cited source: patent KR20150001353A
